These entries and their values trace back to ChEMBL document CHEMBL1141183.

# TARGET OF ASSAY: Opioid receptors; mu & delta (Rattus norvegicus) (UniProt P33533+P33535)
# Sequence (P33533 whole entry, looked up): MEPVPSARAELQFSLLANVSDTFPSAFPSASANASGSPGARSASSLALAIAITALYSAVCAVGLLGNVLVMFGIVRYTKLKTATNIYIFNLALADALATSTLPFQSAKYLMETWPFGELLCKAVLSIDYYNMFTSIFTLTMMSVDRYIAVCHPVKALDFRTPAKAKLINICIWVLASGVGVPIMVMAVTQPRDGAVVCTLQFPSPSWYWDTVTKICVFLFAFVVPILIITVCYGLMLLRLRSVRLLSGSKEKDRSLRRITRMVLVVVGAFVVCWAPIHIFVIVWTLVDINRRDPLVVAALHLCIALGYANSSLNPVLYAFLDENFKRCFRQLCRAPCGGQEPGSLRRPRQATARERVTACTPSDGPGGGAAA
# Sequence (P33535 whole entry, looked up): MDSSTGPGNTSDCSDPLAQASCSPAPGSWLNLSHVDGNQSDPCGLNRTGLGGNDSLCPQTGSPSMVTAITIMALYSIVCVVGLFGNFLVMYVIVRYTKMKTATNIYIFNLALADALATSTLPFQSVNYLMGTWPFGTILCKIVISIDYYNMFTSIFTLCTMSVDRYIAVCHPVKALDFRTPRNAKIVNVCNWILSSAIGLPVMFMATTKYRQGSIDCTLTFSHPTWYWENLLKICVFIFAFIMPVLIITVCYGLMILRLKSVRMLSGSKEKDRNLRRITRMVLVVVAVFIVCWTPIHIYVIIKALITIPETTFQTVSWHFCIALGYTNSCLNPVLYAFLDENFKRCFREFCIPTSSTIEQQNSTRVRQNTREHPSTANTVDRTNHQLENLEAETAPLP
# METHOD: Relative binding to delta and mu Opioid receptors (ratio of Ki)
# Format: protein assay
ASSAY ENDPOINT: Ratio
Keep it simple and answer with nothing but the number.

As a guide, the following entries are already answered.
Cc1cc(O)cc(C(C)C)c1C[C@H](N)C(=O)N1CCC[C@H]1C(=O)N[C@@H](Cc1ccccc1)C(=O)N[C@@H](Cc1ccccc1)C(N)=O	1270
Cc1cc(O)ccc1C[C@H](N)C(=O)N1CCC[C@H]1C(=O)N[C@@H](Cc1ccccc1)C(=O)N[C@@H](Cc1ccccc1)C(N)=O	4000

Readout Ratio for `CCc1cc(O)cc(C)c1C[C@H](N)C(=O)N1CCC[C@H]1C(=O)N[C@@H](Cc1ccccc1)C(=O)N[C@@H](Cc1ccccc1)C(N)=O` , test system Opioid receptors; mu & delta (Rattus norvegicus) (UniProt P33533+P33535), was 884
